Assay: Nuclear factor erythroid 2-related factor 2/antioxidant responsive element (Nrf2/ARE) small molecule agonists: qHTS cell viability counter screen in human keratinocytes (AID 1919968); also: nearly all actives have a fitted effect of over 55% in size
Conditions: KeratinoSens HaCaT ARE cells viability, CellTiter-Fluor, 24 h; series mostly up to 92.4 µM
Results filed as inconclusive are left out. Active and inactive are the calls of the source. Calls follow the shape of the dose curve; as a rule, active = well fitted cell-killing curve with a large enough effect in the repeat runs; inconclusive = weak or mixed curves, or effect the other way; inactive = flat fitted curve, though single readings scatter.
Give your call using only these classes: yes for active, no for inactive

Outcome? CC(C)C1(C)N=C(c2nc3ccccc3cc2C(=O)O)NC1=O (stereo not given)
no

Outcome? CCc1ccccc1C
no

Outcome? CCOP(OCC)OCC
no

Outcome? Clc1cnc(Oc2ccc(Oc3ncc(Cl)cc3Cl)cc2)c(Cl)c1
no

Outcome? C#CC(C)(C)NC(=O)c1cc(Cl)cc(Cl)c1
no

Outcome? COC(=O)c1ccccc1CS(=O)(=O)NC(=O)Nc1nc(OC)cc(OC)n1
no

Outcome? CC(C)(C)C(=O)Cl
no

Outcome? BrCCc1ccccc1
no

Outcome? O=[N+]([O-])c1ccc([As](=O)(O)O)cc1
no

Outcome? CC(C)C(C)(N)C#N (stereo not given)
no

Outcome? COP(=S)(OC)SCn1nnc2ccccc2c1=O
no

Outcome? COP(=O)(O)OC
no

Outcome? COC[C@@H](NC(C)=O)C(=O)NCc1ccccc1
no

Outcome? O=C(Cl)OCc1ccccc1
no

Outcome? CCCC1CCCCN1 (stereo not given)
no

Outcome? O=C(O)CCCOc1ccc(Cl)cc1Cl
no

Outcome? Nc1ncn[nH]1
no

Outcome? CCCCCCCCCCCC(=O)O
no

Outcome? COCCC#N
no

Outcome? CCOP(=S)(OCC)Oc1nc(Cl)c(Cl)cc1Cl
no

Outcome? CCCn1cc[n+](C)c1
no

Outcome? O=C(Cl)OCCOCCOC(=O)Cl
no

Outcome? CCCC[N+]1(C)CCCCC1
no

Outcome? Nc1ccc(-c2ccccc2)cc1
no

Outcome? O=P1(NCCCl)OCCCN1CCCl (stereo not given)
no

Outcome? CC(C)(C)C(=O)C(Cl)Cl
no

Outcome? C=C(C)[C@@H]1CC=C(C=O)CC1
no

Outcome? C=CCc1ccc(OC)cc1
no

Outcome? CCCCOCC1CO1 (stereo not given)
no

Outcome? ClC1(Cl)C2(Cl)C3(Cl)C4(Cl)C(Cl)(Cl)C5(Cl)C3(Cl)C1(Cl)C5(Cl)C24Cl (stereo not given)
no

Outcome? Cc1cccc([N+](=O)[O-])c1
no

Outcome? COc1cc2c(cc1OC)[C@@]13CCN4CC5=CCO[C@H]6CC(=O)N2[C@H]1[C@H]6[C@H]5C[C@H]43
no

Outcome? Cc1ncc2n1-c1ccc(Cl)cc1C(c1ccccc1F)=NC2
no

Outcome? COC(=O)C(Cl)C(=O)OC
no

Outcome? Clc1ccccc1-c1nnc(-c2ccccc2Cl)nn1
no

Outcome? Cc1[nH]c(=O)n(C(C)(C)C)c(=O)c1Cl
no

Outcome? Oc1ccc(Cl)c(Cl)c1
no

Outcome? O=C1C=CC(=O)C=C1
no

Outcome? Cc1coc2c1CCC(C)C2 (stereo not given)
no

Outcome? CCC(=O)Nc1ccc(Cl)c(Cl)c1
no

Outcome? O=C(O)COc1cc(Cl)c(Cl)cc1Cl
no

Outcome? CCOc1nc(F)cc2nc(S(=O)(=O)Nc3c(Cl)cccc3Cl)nn12
no

Outcome? CNC(=O)O/N=C(\SC)C(=O)N(C)C
no

Outcome? Cc1ccccc1O
no

Outcome? O=C(O)C(F)(F)C(F)(F)C(F)(F)C(F)(F)C(F)(F)C(F)(F)F
no

Outcome? C[C@@H]1CN(C2CCC(C#N)(c3ccc(F)cc3)CC2)CC[C@]1(C(=O)O)c1ccccc1 (stereo not given in full)
no

Outcome? O=C(NCc1cccnc1)Nc1ccc([N+](=O)[O-])cc1
no

Outcome? O=S(=O)(Oc1ccc(Cl)cc1)c1ccc(Cl)cc1
no

Outcome? CCCCCCCCCc1ccc(O)cc1
yes

Outcome? CCN(CCO)CCO
no

Outcome? CCN(CC)CCO
no

Outcome? c1ccc(CN2CCNCC2)cc1
no

Outcome? Nc1ccc(N)cc1
no

Outcome? CCCCCCCCCCOC(=O)c1ccccc1C(=O)OCCCCCCCCCC
no

Outcome? O=P(O)(O)CCCl
no

Outcome? CCn1cc[n+](C)c1C
no

Outcome? COc1ccccc1OC
no

Outcome? CSc1nc(NC(C)C)nc(NC(C)C)n1
no

Outcome? CCC(C)C(C)(COC(N)=O)COC(N)=O (stereo not given)
no

Outcome? CCOC(=O)CC(SP(=S)(OC)OC)C(=O)OCC (stereo not given)
no

###

Biological target: Gonadotropin-releasing hormone receptor (Homo sapiens) (UniProt P30968)
Sequence (P30968 whole entry, looked up): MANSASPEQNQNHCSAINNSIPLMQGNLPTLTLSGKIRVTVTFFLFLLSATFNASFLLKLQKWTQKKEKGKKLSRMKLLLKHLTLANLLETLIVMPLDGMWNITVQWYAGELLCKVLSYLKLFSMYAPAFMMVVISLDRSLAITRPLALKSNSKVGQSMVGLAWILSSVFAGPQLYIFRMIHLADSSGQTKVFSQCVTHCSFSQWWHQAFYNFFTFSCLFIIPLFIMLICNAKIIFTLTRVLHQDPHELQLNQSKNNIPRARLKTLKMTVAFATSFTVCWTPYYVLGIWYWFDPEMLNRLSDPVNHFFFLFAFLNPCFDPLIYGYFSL
Test: Human gonadotropin-releasing hormone receptor (GnRHR) small molecule agonists, calcium flux assay in GnRHR-HEK293 cells (AID 1920063); also: nearly all actives have a fitted effect of over 35% in size
Details: calcium flux fluorescence, agonist mode; series mostly up to 57.6 µM
Active and inactive are the calls of the source. Calls follow the shape of the full dose curve.
endpoint-label: outcome

# compound, endpoint-label, observed
records = [
    ("CCOP(=S)(OCC)Oc1ccc2c(C)c(Cl)c(=O)oc2c1", "outcome", "inactive"),
    ("Nc1ccc2ccccc2c1", "outcome", "inactive"),
    ("N#Cc1cc([N+](=O)[O-])ccc1N", "outcome", "inactive"),
    ("CCOC(=O)C1OC1(C)c1ccccc1 (centres undefined)", "outcome", "inactive"),
]

###

Assay: p53 small molecule agonists, cell-based qHTS assay with rat liver microsomes: qHTS cell viability counter screen (AID 1963580); also: nearly all actives have a fitted effect of over 45% in size
Conditions: p53RE-bla HCT-116 + rat microsomes, ATP viability, 16 h; series mostly up to 66 µM
Inconclusive results are not listed. The source made the active and inactive calls. Calls come from the whole dose curve.
Give your call using only these classes: active, inactive

Outcome? CCBr
inactive

Outcome? N#CSCSC#N
active

Outcome? ClC(Cl)c1ccccc1
inactive

Outcome? OC[C@@H](O)[C@H]1O[C@@H]2O[C@H](C(Cl)(Cl)Cl)O[C@@H]2[C@H]1O
inactive

Outcome? CNC(=S)S
inactive

Outcome? CCC1(CC)C(=O)C=CNC1=O
inactive

Outcome? ClCc1cccnc1
inactive

###

Assay: Nuclear factor erythroid 2-related factor 2/antioxidant responsive element (Nrf2/ARE) small molecule agonists: luciferase reporter gene qHTS assay in human keratinocytes (AID 1919969); also: nearly all actives have a fitted effect of over 35% in size
Conditions: KeratinoSens HaCaT ARE-luciferase, luminescence, 24 h; series mostly up to 92.4 µM
Inconclusive results are not listed. Calls of active or inactive are those of the source. The call rests on the fitted dose curve.
Give your call using only these classes: active, inactive

Outcome? C=CC(C)=O
active

Outcome? CN(C)c1nc(=O)n(C2CCCCC2)c(=O)n1C
inactive

Outcome? O=P(O)(O)CCCl
inactive

Outcome? CC(C)(C1CCC(O)CC1)C1CCC(O)CC1 (stereo unspecified)
inactive

Outcome? CCCCCCOC(=O)c1ccccc1C(=O)OCCCCCC
inactive

Outcome? CCCCN(CCCCO)N=O
inactive

Outcome? c1ccc(C2CO2)cc1 (stereo unspecified)
inactive

Outcome? O=[N+]([O-])c1cc([As](=O)(O)O)ccc1O
inactive

Outcome? COc1nc(NC(C)C)nc(NC(C)C)n1
inactive

Outcome? CCN(CC)CCN1C(=O)CN=C(c2ccccc2F)c2cc(Cl)ccc21
inactive

Outcome? C=C(C)C#N
inactive

Outcome? CC[N+]1(CC)CCC(OC(=O)C(O)(c2ccccc2)c2ccccc2)C1 (stereo unspecified)
inactive

Outcome? C=C(C)C(=O)OCC1CO1 (stereo unspecified)
inactive

Outcome? O=NN(c1ccccc1)c1ccccc1
inactive

Outcome? C[C@]12CC[C@H]3[C@@H](CCC4=CC(=O)CC[C@@H]43)[C@@H]1CC[C@@H]2O
inactive

Outcome? Cc1cccc(C#N)c1
inactive

Outcome? C[C@H]1O[C@H](OC2[C@@H](O)[C@@H](O)C(O)[C@H](O)[C@H]2O)[C@@H](N)C[C@@H]1N=C(N)C(=O)O (stereo partly specified)
inactive

Outcome? CC(C)(N)Cc1ccccc1Cl
inactive

Outcome? O=C(O)C(Cl)(Cl)Cl
inactive

Outcome? Cc1ccc(-c2nc3ccc(C)cn3c2CC(=O)N(C)C)cc1
inactive

Outcome? O=P(OCCCl)(OCCCl)OCCCl
inactive

Outcome? N#CCC#N
active

Outcome? CC(O)CCO (stereo unspecified)
inactive

Outcome? O=C(O)C(Cl)(Cl)Br
inactive

Outcome? CC[N+](=O)[O-]
inactive

Outcome? O=Cc1ccc(Cl)cc1Cl
inactive

Outcome? C=CCc1cc(OC)c2c(c1)OCO2
inactive

Outcome? CCC(C)(C)c1ccc(O)c(C(C)(C)CC)c1
active

Outcome? CCCCCCCCSC(=O)Oc1cc(Cl)nnc1-c1ccccc1
inactive

Outcome? O=P1(N(CCCl)CCCl)NCCCO1 (stereo unspecified)
inactive

Outcome? CCOP(=O)(OCC)OCC
inactive

Outcome? C[N+](C)(C)CC(=O)O
inactive

Outcome? OCC(Br)CBr (stereo unspecified)
inactive

Outcome? C=CCN(CC=C)C(=O)C(Cl)Cl
inactive

Outcome? CCC(=O)OC1(c2ccccc2)CCN(C)CC1
inactive

Outcome? CCN(N=O)C(N)=O
inactive

Outcome? O=C/C=C/c1ccco1
inactive

Outcome? O=C(O)C(F)(F)C(F)(F)C(F)(F)C(F)(F)C(F)(F)C(F)(F)C(F)(F)C(F)(F)F
inactive

Outcome? CCCCCCCCCCCCCl
inactive

Outcome? Nc1ccc([As](=O)(O)O)cc1
inactive

Outcome? ClCCN1CCCC1
inactive

Outcome? CCOP(=O)(CN(CCO)CCO)OCC
inactive

Outcome? Sc1ccccc1Cl
inactive

Outcome? COC(=O)c1ccccc1N
inactive

Outcome? CN=C=O
inactive

Outcome? CCCC(C)(COC(N)=O)COC(N)=O
inactive

Values compiled from PubChem BioAssay (Tox21).
